# ASSAY TEXT: Pharmacokinetics of GT467 and GT511 in rats, plasma and brain (IV, IP, PO)
# Format: in vivo, rat
# REPORTED CONDITIONS: male, Wistar; rat plasma; PO 10 mg/kg
READOUT LABEL: Cmax (ng/mL)

[A] COc1ccc(NC(=O)C(=O)N2CCN(c3ccccc3)CC2)cc1 [GT511]
[B] COc1ccc(NC(=O)C(=O)NCC(c2ccccc2)N2CCN(C)CC2)cc1 (centres unmarked) [GT467]
Ask | Two entries are listed, A and B . Which one carries the higher Cmax? Your choice should be expressed through its label.
Reply | B

###

# ASSAY TEXT: Pharmacokinetics of GT467 and GT511 in rats, plasma and brain (IV, IP, PO)
# Assay type: in vivo, rat
# REPORTED CONDITIONS: male, Wistar; rat plasma; PO 10 mg/kg; read-out: CL/F (converted)
READOUT LABEL: CL/F (mL/min/kg)

[I] COc1ccc(NC(=O)C(=O)N2CCN(c3ccccc3)CC2)cc1 [GT511]
[II] COc1ccc(NC(=O)C(=O)NCC(c2ccccc2)N2CCN(C)CC2)cc1 (centres unmarked) [GT467]
Ask | Please choose the item with the lower CL/F value from this pair: I and II Indicate which entry you chose by stating its label.
Reply | II

###

# ASSAY TEXT: Pharmacokinetics of GT467 and GT511 in rats, plasma and brain (IV, IP, PO)
# Assay type: in vivo, rat
# REPORTED CONDITIONS: male, Wistar; rat plasma; IP 10 mg/kg; 0 to 24 hrs; read-out: AUC0-t
# Protocol: Pharmacokinetics (PK) study for GT951 was conducted at Melior Discovery Services (Exton, PA). Fifteen male CD-1 mice 23-50 g was used for the study and the mice were housed 3 per cage. […] Rats were dosed with the drug and blood and brain samples were collected at 0.5, 1, 2, 4, 8 and 24 h time points. […] In addition to the internal standards, drug free plasma and brain samples were prepared for calibration and quantification standards. […]
READOUT LABEL: AUC0-t (ng·h/mL)

[P] COc1ccc(NC(=O)C(=O)NCC(c2ccccc2)N2CCN(C)CC2)cc1 (centres unmarked) [GT467]
[Q] COc1ccc(NC(=O)C(=O)N2CCN(c3ccccc3)CC2)cc1 [GT511]
Ask | In terms of reported AUC0-t, does P or Q have the smaller number? Please identify the chosen entry by its label.
Reply | P
(P: 537 ng·h/mL, Q: 1070 ng·h/mL)

###

# ASSAY TEXT: Pharmacokinetics of GT467 and GT511 in rats, plasma and brain (IV, IP, PO)
# Assay type: in vivo, rat
# REPORTED CONDITIONS: male, Wistar; rat plasma; PO 10 mg/kg
READOUT LABEL: AUC(0-inf) (ng·h/mL)

[a] COc1ccc(NC(=O)C(=O)N2CCN(c3ccccc3)CC2)cc1
[b] COc1ccc(NC(=O)C(=O)NCC(c2ccccc2)N2CCN(C)CC2)cc1 (centres unmarked)
Ask | Which record would sort first by descending AUC(0-inf), a or b ? API: response body contains the label of the selected item.
Reply | b
(b: 798 ng·h/mL, a: 399 ng·h/mL)

###

# ASSAY TEXT: Pharmacokinetics of GT467 and GT511 in rats, plasma and brain (IV, IP, PO)
# Type: in vivo, rat
# REPORTED CONDITIONS: male, Wistar; rat plasma; IP 10 mg/kg
READOUT LABEL: AUC(0-inf) (ng·h/mL)

[P] COc1ccc(NC(=O)C(=O)N2CCN(c3ccccc3)CC2)cc1 [GT511]
[Q] COc1ccc(NC(=O)C(=O)NCC(c2ccccc2)N2CCN(C)CC2)cc1 (centres unmarked) [GT467]
Ask | Identify the entry with the larger AUC(0-inf). Options: P and Q Returns: label corresponding to the selected item.
Reply | P
(P: 1130 ng·h/mL, Q: 556 ng·h/mL)

###

# ASSAY TEXT: Pharmacokinetics of GT467 and GT511 in rats, plasma and brain (IV, IP, PO)
# Format: in vivo, rat
# REPORTED CONDITIONS: male, Wistar; rat plasma; PO 10 mg/kg; 0 to 24 hrs; read-out: AUC0-t
READOUT LABEL: AUC0-t (ng·h/mL)

[I] COc1ccc(NC(=O)C(=O)N2CCN(c3ccccc3)CC2)cc1
[II] COc1ccc(NC(=O)C(=O)NCC(c2ccccc2)N2CCN(C)CC2)cc1 (centres unmarked)
Ask | Param metric = AUC0-t; output whichever of I , II has the minimum value. Give the label of your selection.
Reply | I

###

# ASSAY TEXT: Pharmacokinetics of GT467 and GT511 in rats, plasma and brain (IV, IP, PO)
# Assay type: in vivo, rat
# REPORTED CONDITIONS: male, Wistar; rat plasma; IV 5 mg/kg
READOUT LABEL: Cmax (ng/mL)

[P] COc1ccc(NC(=O)C(=O)NCC(c2ccccc2)N2CCN(C)CC2)cc1 (centres unmarked)
[Q] COc1ccc(NC(=O)C(=O)N2CCN(c3ccccc3)CC2)cc1
Ask | Name the one with the greater Cmax value, either P or Q as given. Mark your selection by writing its label.
Reply | Q
